tested on: RPS6KA4(Kin.Dom.2-C-terminal); conditions: concentration: 1 μM, replicates: in singlicate; n = 1;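 further: KINOMEscan kinase panel screen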
Measurement Name: %Inh (%)
Return type: number; implicit unit %.

>>> df
                                   compound  measurement_name  assay_result
0  COc1ccc(-c2coc3ccc(-c4nnc(SCc5cccc(C#N)c5)o4)cc23)cc1              %Inh            13
1                Nc1ncnc2c1ncn2-c1cccc(F)c1              %Inh            45
2  COc1ccc(CNC(=O)NC2CCN(c3ccnc(Nc4ccc(F)cc4)n3)C2)cc1 (centres unmarked)              %Inh             0
3  Cl.NS(=O)(=O)c1cccc(Nc2cc(-c3ccc(F)cc3)n[nH]2)c1              %Inh             0

Please find the next compound below.
Value of measured %Inh for the entry "O=C(NCc1cccs1)c1cc(C(=O)c2c(Cl)cccc2Cl)c[nH]1" : 0
